Hi there, I'd appreciate the recorded activity at 10 µM for every entry that follows.
- System: HBV viral load in AD38 cells
- MEASUREMENT DESCRIPTION: Viral load production in AD38 cells, quantitative PCR of the core sequence in supernatant
- Format: cell-based
- CONDITION SUMMARY: Hepatitis B virus, 144 h, 6 days incubation, Table 4, compounds of Group 2, read-out: AD38 Viral Load (%) (VL with cmpd/VL in DMSO control) at 10 μM
# output: bare number, implied unit %

activity at 10 µM for CN(C)CCCOc1ccc(-c2ncc(CNC(=O)c3ccc4c(c3)NC(=O)c3ccncc3S4(=O)=O)s2)cc1 ?
8.5

Form field: reported activity at 10 µM of Cc1c(C(=O)NCc2cnc(-c3ccc(OCCCN(C)C)cc3)s2)ccc2c1NC(=O)c1ccncc1S2(=O)=O
7.1

Reported activity at 10 µM, molecule N#Cc1ccc(-c2ncc(CNC(=O)c3ccc4c(c3)NC(=O)[C@H]3CCCCN3S4(=O)=O)s2)c(F)c1 (single isomer, unassigned) [C25-02-Isomer II] : ____
0.6
